B1: OR4K15 (parent)
chain: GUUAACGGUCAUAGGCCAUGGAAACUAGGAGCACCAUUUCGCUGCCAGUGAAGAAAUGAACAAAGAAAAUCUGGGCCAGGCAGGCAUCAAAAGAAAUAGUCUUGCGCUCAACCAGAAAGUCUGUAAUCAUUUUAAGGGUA

variants of: B1; assay: self-cleavage, relative activity (ratio to wild type); higher = more cleavage; in vitro, sequencing; the parent is a self-cleaving ribozyme
// reported self-cleavage per item
Lab note: jot down the number only; don't add units.

See these solved cases before continuing.
Mutation Code: U12C U70C
self-cleavage: 1.25
//
Mutation Code: U57C A60U
self-cleavage: 1.78

Query: Name the reported self-cleavage value associated with the variant A96G G137U
Response: 1.8

Query: Now give it for C71A U132C too.
Response: 0.58

Query: Can you handle A67U A95G next?
Response: 2.49

Query: Now try A90G A135G .
Response: 0.51

Query: Proceed to G44U A64G
Response: 1.19

Query: Okay, and A4G U72C ?
Response: 0.21

Query: Moving on to the next variant: A51G A96U
Response: 0.46

Query: Now consider A24U A116U and answer again.
Response: 0.51

Query: Likewise for A67G G83A ?
Response: 2.38

Query: Entry to check: A24G A27C
Response: 0.55

Query: What about A86G A140G ?
Response: 0.77

Query: Thanks! And G65A A68G ?
Response: 1.57

Query: Can you check A59G C85U next?
Response: 0.51

Query: Now this one: A95G C107A
Response: 0.02

Origin of measurements: the RNAGym collection of RNA variant scans (doi:10.7554/elife.90254)
